biological target: AthDHAD-V497F (Arabidopsis thaliana, UniProt Q9LIR4, V531F); experiment: In vitro activity and AA inhibition assay of AthDHAD mutant V497F; conditions: DHI as substrate (10 mM), 0.5 μM enzyme
Sequence (Q9LIR4 35-608 V531F): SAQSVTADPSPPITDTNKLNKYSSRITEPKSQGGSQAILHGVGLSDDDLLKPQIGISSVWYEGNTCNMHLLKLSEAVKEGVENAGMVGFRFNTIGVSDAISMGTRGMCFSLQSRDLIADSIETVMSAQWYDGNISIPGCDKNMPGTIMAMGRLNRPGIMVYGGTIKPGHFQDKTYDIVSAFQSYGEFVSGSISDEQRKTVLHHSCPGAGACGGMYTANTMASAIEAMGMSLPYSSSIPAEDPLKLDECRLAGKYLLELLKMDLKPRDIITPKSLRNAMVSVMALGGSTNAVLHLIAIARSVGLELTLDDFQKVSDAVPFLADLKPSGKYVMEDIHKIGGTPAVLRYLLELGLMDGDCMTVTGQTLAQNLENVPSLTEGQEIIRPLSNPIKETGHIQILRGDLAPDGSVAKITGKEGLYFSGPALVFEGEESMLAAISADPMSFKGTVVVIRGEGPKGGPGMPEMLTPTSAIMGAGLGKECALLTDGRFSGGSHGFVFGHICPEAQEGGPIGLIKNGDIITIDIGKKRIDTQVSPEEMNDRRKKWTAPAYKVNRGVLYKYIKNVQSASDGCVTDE
quantity_kind: pIC50
The read-out pIC50 is expressed as -log10 of concentration in moles per litre.

Query block: Please give the measured pIC50 for this molecule: CC(C)=C1CCC23COC(C2)C(O)(C(=O)O)CCC13 (stereo not shown)
Result block: 5.90

----------
molecular target: AthDHAD-I177L (Arabidopsis thaliana, UniProt Q9LIR4, I211L); experiment: In vitro activity and AA inhibition assay of AthDHAD mutant I177L
Sequence (Q9LIR4 35-608 I211L): as the sequence (Q9LIR4 35-608 V531F) above, with I177L, F497V counted along it
quantity_kind: pIC50
pIC50 is a log-scale quantity: -log10 of the concentration expressed in molar.

Query block: Which pIC50 is reported with AthDHAD-I177L (Arabidopsis thaliana, UniProt Q9LIR4, I211L) for this entry: CC(C)=C1CCC23COC(C2)C(O)(C(=O)O)CCC13 (stereo not shown) ?
Result block: 7.30

----------
Target: AthDHAD-I177L-V497L (Arabidopsis thaliana, UniProt Q9LIR4, I211L/V531L)
Assay: In vitro activity and AA inhibition assay of AthDHAD double mutant I177L/V497L
Method: In vitro activity assays were carried out in 25 μl of reaction mixture containing A10 buffer without NaCl. The Michaelis–Menten constants (kcat, KM) for each enzyme were calculated by fitting the following formula to the observed reaction rate. V=VmaxS/KM+S Vmax=kcatE0 The inhibition percentages of AA on AthDHADs were determined using in vitro biochemical assays and calculated with the following equation: […]
quantity_kind: IC50 (µM)
Hi! Could you send only the number? It should be in µM, unit omitted.

Query block: If you can, please state the reported IC50 value of CC(C)=C1CCC23COC(C2)C(O)(C(=O)O)CCC13 (stereo not shown) .
Result block: 0.028

----------
molecular target: AthDHAD-I177F (Arabidopsis thaliana, UniProt Q9LIR4, I211F); assay: In vitro activity and AA inhibition assay of AthDHAD mutant I177F
Sequence (Q9LIR4 35-608 I211F): as the sequence (Q9LIR4 35-608 V531F) above, with I177F, F497V counted along it
quantity_kind: pIC50
In textbook form, pIC50 equals minus log to base ten of the concentration in mol/L.

Query block: Request - read-out pIC50 | tested on AthDHAD-I177F (Arabidopsis thaliana, UniProt Q9LIR4, I211F) | compound CC(C)=C1CCC23COC(C2)C(O)(C(=O)O)CCC13 (stereo not shown)
Result block: 4.43

----------
Biological target: AthDHAD-V178L-V497L (Arabidopsis thaliana, UniProt Q9LIR4, V212L/V531L)
Sequence (Q9LIR4 35-608 V212L/V531L): as the sequence (Q9LIR4 35-608 V531F) above, with V178L, F497L counted along it
Assay: In vitro activity and AA inhibition assay of AthDHAD double mutant V178L/V497L
Procedure: In vitro activity assays were carried out in 25 μl of reaction mixture containing A10 buffer without NaCl. The Michaelis–Menten constants (kcat, KM) for each enzyme were calculated by fitting the following formula to the observed reaction rate. V=VmaxS/KM+S Vmax=kcatE0 The inhibition percentages of AA on AthDHADs were determined using in vitro biochemical assays and calculated with the following equation: […]
quantity_kind: pIC50
Reminder that pIC50 is minus the log10 of a molar concentration.

Query block: Tell me the measured pIC50 of CC(C)=C1CCC23COC(C2)C(O)(C(=O)O)CCC13 (stereo not shown) , please.
Result block: 6.40
